Reference for the values: the supplement of paper PMC9170038

This listing pairs sequences with measured apparent KD of K4 kissing-loop reporter.
tested on: K4 kissing-loop RNA reporter; test: apparent KD of K4 kissing-loop reporter; higher = weaker reporter binding; conditions: Eterna round: R107; input ligand: FMN 200 uM;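 also: bound reporter read as fluorescence of individual clusters on recovered sequencing chips by microscopy, with normalized cluster intensities fitted with a binding model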
experimental_endpoint: apparent KD of K4 kissing-loop reporter (nM)

1) UUUUGCGCGUACGAUACCAGUAUCUGUAAGAGUGAUGUUCAGCGCUGAAGACAGCAGCGAUACCCUUGGCAGCGUUACAUGCUAG [theeternabot_sameState_KL_Theo_B_22] ... 797
2) UUAUAUAAUUUGUCUUUUUUAACAUUAAGUCAGGAUAUCGUAUAUUCGAGAAGGGACACAUGCUAGUGAUGUUAGCUAUUUCUUU [JR_ExcFMNA_Sub016] ... 31.7
3) CCAUCGCUAUUCGAUACCAGCUACUUAGUGAUGUUAAGUUUAUAUCCACUGUAGGUGGAAAGCCCUUGGCAGCGAAUAGUGAUGG [Theophylline B K4 25] ... 436
4) UGAUAGGACAGAAGGAGCGGAAGCUAGUCAAAGACUAGCAAACGUUAAACAGGAGUGAUGUUCCAGGUAGGUCGCUGUCCUAUCU [ArgBX 23 #SwitchBubble #StaticStem] ... 124
5) ACAGUUGCUAGUGAUACCAGACUAGCACUACGUAAUAUGUCAAGUGAUGUUUGACAACUAGUCCCUUGGCAGCGCGAUACGACUG [#11 K4 Theophylline B Same State] ... 235
6) CAUGGGCCAGUGAUGUUGGCGCGCACGGGACGAGGACCGGUACGGCCGCCACUCGCUUUUGCUCUUAUCGGGAUAAGAAAACCGA [Enveerorle] ... 453
7) GGAGUUACCUGGGAUACCAGUCGGAGUCUCAGAGCACGGAGUGAUGUUCUGGGAUGUUUCGGCCCUUGGCAGCUCUGGGACUCCA [#2 Exclusion - Theophylline B Attempt #15 (HarryS)] ... 317
8) GUAGACAGGCUGCGAACCUAGUCUACAGACUAGGAUAUCAGGAAACUGAGAAGGAGUCUAGUUGCAGUGAUGUUGCAAGAAUAAU [KL-SSFMN-A25] ... 81.3
9) AACAGCAAUGCGGCCGCCACUUCGAGUUCAGUGAUGUUGAAAGAAUUAAAUAAAGAUCCCAAGAGGAGGACCGGGCAGUGCUGUU [Default title] ... 596
10) AGAGAUAUAUGAGGAUAUGAGUUAGUUAAUGAGUGAGUUUUAGUGUUGUUUGGUUAGUGAUGUUAUUUAGAAGGCGUGAGUGAUG [ttytmullin] ... 98.8
11) UUUCGUAGAAGUGAUACCAGACUUGAAAGUGAUGUUUUCCAAUAAUUUAAAUUUUUAGCUGUCCCUUGGCAGCACAGUUUAUUUA [JR_Nu_ExcTheophyB_Sub026] ... 218

* * *

tested on: MS2 coat protein; test: apparent KD of MS2 coat protein; designed switch direction (-1 OFF switch, 1 ON switch): 1; higher = weaker reporter binding; details: input ligand: none
experimental_endpoint: apparent KD of MS2 coat protein (nM)

1. GGAGCCAAGGCAGGAUAUUCAUAUUAAAACAUGAGGAUCACCCAUGUAAAGGCCAGAAGGCCUUGGGAGAAGGGCCAUGGCUCG [Xeonanis - 13 mod1] (Eterna round: R96, puzzle: Same State NG 2) ... 49
2. CGGGAGAUCGUAGGAUAUCUAGGAUAUGAACGAGGAUCACCCGAGCAGCAUCAGCGCAUCAGAGGAGAGAAGGACGAUCAUGCG [pwkr ssNG2 2F5 2FMN.6] (Eterna round: R96, puzzle: Same State NG 2) ... 741
3. CCGAGUGGCGUACAGGAUAUGUUGCAUGGAACAUGAGGAUCACCCAUGUAUUUGCUCCCGCAUACGCAGAAGGGUGCGUCCUGGG [Arraquorso] (Eterna round: R96, puzzle: Same State 2) ... 46.9
4. GUACAUAUUAUAGGAUAUCACGUCGAAUAGACGUGAGAAGGAUAAUCCCACAUGAAUAUUAAUACAUGAGGAUCACCCAUGUAC [SSNG1/18-A1] (Eterna round: R96, puzzle: Same State NG 1) ... 49.2
5. AAUCGUUUGAUAGGAUAUCGCUAUACAUGAGGAUCACCCAUGUUUACCACGCUGGUUUUUCAUACCGAGAAGGAUUCUGAUGAC [salish99_SSNG02_r04_002] (Eterna round: R96, puzzle: Same State NG 2) ... 29.8
6. GGUCGGACAUGAGGAUCACCCAUGUGGUGAGCGGAAACGCCAUAGGAUAUCUGUCCGAAAAGGUCAGAGAAGGGUGAACCGACC [Fiskers NG3ss - 68] (Eterna round: R96, puzzle: Same State NG 3) ... 135
7. AGAUCAUGACGAGGAUAUGGUACAUGAGGAUCACCCAUGUAUGUACCACGACGCGUACGUCGAAUCCAGAAGGCGUCGUGAUCA [Mat - Same State NG 2 - JL mod - D16] (Eterna round: R96, puzzle: Same State NG 2) ... 99.3
8. ACAAGACAGGGAGGAUAUAGCUGUUCAUCAAAGUUAGAAGGCUCGUACACAUGAGGAUCACCCAUGUUGUCGGCAGUCGACUGA [Eternabot solution 42] (Eterna round: R96, puzzle: Same State NG 1) ... 12.2
9. CACGUCCAGGUAGGAUAUGAGGUGCCAUAGGGAACAGCCUAUGGACAUGAGGAUCACCCAUGUCCUCAGAAGGGCCAGACGUGA [Rasote] (Eterna round: R96, puzzle: Same State NG 2) ... 171
10. AAACACAUGAGGAUCACCCAUGUAGCGCCAUUAAAGCGCACAUAGGAUAUCCGGUCCUAAAGACCGGAGAAGGGUGAAAGAAAA [Zara] (Eterna round: R96, puzzle: Same State NG 3) ... 121
11. CCCGUCUACAGAAAGGUAGAUGGGAAUGUACAUGAGGAUCACCCAUGUUAAUAUGAGUUUGUUGAUAAUUAUGAAUU [Modxample 50 - Jieux - Sensor for bsa-mir-208a] (Eterna round: R96, puzzle: Sensor for hsa-mir-208a) ... 24.4
12. GCGGAACGGGCCGACAUGAGGAUCACCCAUGUGCCCUCAUGUAAGGAUAUCGGGAAGAAGAAAACCGAGAAGGUACGGUGACGC [AK SSNG3-V2-30] (Eterna round: R96, puzzle: Same State NG 3) ... 137
13. CAAGAAAACGCAGGAUAUACCCGAACAACCCGGGUAGAAGGGUGACACAUGAGGAUCACCCAUGUACAUGGCAUUAGCCAUGGA [Esusxebeis] (Eterna round: R96, puzzle: Same State NG 1) ... 430
14. GAAAAACAUGAGGAUCACCCAUGUGUAAACAAGGGAGGAUAUACAAAGACGUAAGUCAAAGUAGAAGGCCUAAAAG [Garnet 38] (Eterna round: R96, puzzle: Same State 1) ... 71.8
15. GAGCCAGUCCGAGGAUAUUCAUAUUAACAUGAGGAUCACCCAUGUAGGCUCAGAAAGGAGCCUUGGGAGAAGGCGGACUGGCUC [Xeonanisa<<2] (Eterna round: R96, puzzle: Same State NG 2) ... 251
16. UUCCCAUCGGGAGGAUAUGGUGCCUUAUUGGUGCUAGAAGGUCCAACAUGAGGAUCACCCAUGUGGGAGUGGUCUAAUGACCUC [SS NG10LRO06] (Eterna round: R96, puzzle: Same State NG 1) ... 355
17. GCCAACUCAUGAGGAUAUGGCACCUUAUUGGUGCCAGAAGGCAUGUCAAUUGACAUGAGGAUCACCCAUGUAUUAUAGUUGGCA [Fiskers NG1ss - 22] (Eterna round: R96, puzzle: Same State NG 1) ... 489
18. GAGGGACAGACCAACAUGAGGAUCACCCAUGUCCUCGCAGGUCAGGAUAUCAUGAGGAUCACCCAUGAGAAGGGACGGUGAACC (Eterna round: R96, puzzle: Same State NG 3) ... 149
